So I've got a bunch of compounds here, and I need their Placenta weight (%) values.
- System: time-mated Wistar rats
- protocolNotes: in vivo maternal and prenatal developmental toxicity screening study (OECD 414 principles)
- testConditions: rat, gavage GD 6–19, 200 mg/kg
Numbers only, in %.

The examples below pair each entry with its known result.
1. CC1CC(C)OC(Cn2cncn2)(c2ccc(Oc3ccc(Cl)cc3)cc2Cl)O1 (stereo not shown); 105
2. OC(c1cccnc1)c1c(-c2ccc(F)cc2F)noc1-c1ccc(Cl)cc1F (stereo not shown); 110

Which Placenta weight (%) is listed for OC(c1cccnc1)c1c(-c2ccc(F)cc2F)csc1-c1ccc(F)cc1F (stereo not shown) ? 117
